System tested: CDK4/cyclin D1 (Homo sapiens)
Sequence (P11802 whole entry): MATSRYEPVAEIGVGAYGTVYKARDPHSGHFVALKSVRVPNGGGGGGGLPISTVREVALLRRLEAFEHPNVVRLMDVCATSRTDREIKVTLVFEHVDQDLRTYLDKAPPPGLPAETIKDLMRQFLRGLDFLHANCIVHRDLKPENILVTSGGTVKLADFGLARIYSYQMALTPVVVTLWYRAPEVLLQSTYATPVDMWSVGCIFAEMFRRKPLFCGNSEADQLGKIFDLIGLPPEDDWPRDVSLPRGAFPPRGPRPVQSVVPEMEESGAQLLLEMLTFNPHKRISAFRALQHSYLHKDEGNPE
Sequence (P24385 whole entry partner): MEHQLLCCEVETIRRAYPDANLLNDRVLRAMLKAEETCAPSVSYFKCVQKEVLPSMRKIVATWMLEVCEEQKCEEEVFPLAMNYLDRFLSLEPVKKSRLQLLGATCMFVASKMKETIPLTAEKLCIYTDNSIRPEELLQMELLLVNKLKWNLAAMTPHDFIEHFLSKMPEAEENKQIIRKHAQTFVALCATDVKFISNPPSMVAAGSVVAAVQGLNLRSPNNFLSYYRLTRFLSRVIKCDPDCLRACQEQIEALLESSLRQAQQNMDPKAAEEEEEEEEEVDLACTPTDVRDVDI
Measurement notes: CDK4/cyclin D1 kinase activity, mobility shift assay
Measured parameter: pIC50
Just so you know, pIC50 here is -log10 of the concentration in molar units; reply with that number alone.

Please review the entries below; each comes with its answer.
| Compound | Readout value |
| --- | --- |
| Cc1nc2c(F)cc(-c3nc(N[C@@H]4CCOC[C@H]4O)ncc3F)c3c2n1[C@@H](C)CO3 (single isomer, unassigned) [Isomer 1 with a retention time of 2.903 min in Example 1] | 7.59 |
| CC1COc2c(-c3nc(N[C@@H]4CCOC[C@H]4O)ncc3Cl)cc(F)c3nc(C(C)(C)O)n1c23 (mixture of isomers) [4f (racemate) in Example 4] | 7.82 |
| Cc1nc2c(F)cc(-c3nc(N[C@@H]4CCOC[C@H]4O)ncc3Cl)c3c2n1[C@@H](C)CO3 (single isomer, unassigned) [Isomer 1 with a retention time of 3.518 min in Example 3] | 7.82 |

Lookup: Query pIC50 for Cc1nc2c(F)cc(-c3nc(N[C@@H]4CCOC[C@H]4O)ncc3F)c3c2n1[C@@H](C)CO3 (single isomer, unassigned) [Isomer 2 with a retention time of 3.997 min in Example 1]
Found: 7.96

Lookup: Please give the documented pIC50 of Cc1nc2c(F)cc(-c3nc(N[C@@H]4CCN(S(C)(=O)=O)C[C@H]4O)ncc3Cl)c3c2n1[C@@H](C)CO3 (single isomer, unassigned) [Isomer 2 with a retention time of 2.499 min in Example 2]
Found: 8.82

Lookup: Using the record for Cc1nc2c(F)cc(-c3nc(N[C@@H]4CCN(S(C)(=O)=O)C[C@H]4O)ncc3Cl)c3c2n1[C@@H](C)CO3 (single isomer, unassigned) [Isomer 1 with a retention time of 2.094 min in Example 2] , state its measured pIC50.
Found: 8.60
